Provenance of the data: paper PMC10668032

- testSystem: SIX1-Q177R homeodomain (human, UniProt Q15475 108-198, Q177R)
- Sequence: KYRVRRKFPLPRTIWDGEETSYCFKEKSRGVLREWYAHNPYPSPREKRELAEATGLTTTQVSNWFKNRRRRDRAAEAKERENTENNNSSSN
- measurementDescription: universal protein binding microarray; Universal all-10-mer PBM (8x60K, AMADID 030236), 300 nM GST-tagged protein, Alexa Fluor 488 anti-GST; buffer, salt, pH and temperature not stated (as in Berger); high values mean tight binding
- measurementSetup: protein: ivt; tags: N-terminal GST; dsDNA, one strand shown
The full ranking holds about 33,000 sequences; the median of “e-score” is about -0.05, and the highest 2% start at about 0.38. The sample holds the highest values, similar sequences and a random draw of the others, so the mix is not that of the screen.
Quick rule for you: binding signal at 0.2 E-score or higher means rule met, lower means rule not met.

sequenceText: CGACTCCC
testSystem: SIX1-Q177R homeodomain (human, UniProt Q15475 108-198, Q177R)
discreteLabel: rule met
--
sequenceText: ACCCTGTG
testSystem: SIX1-Q177R homeodomain (human, UniProt Q15475 108-198, Q177R)
discreteLabel: rule met
--
sequenceText: ATCCCGTG
testSystem: SIX1-Q177R homeodomain (human, UniProt Q15475 108-198, Q177R)
discreteLabel: rule met
--
sequenceText: CACTCACC
testSystem: SIX1-Q177R homeodomain (human, UniProt Q15475 108-198, Q177R)
discreteLabel: rule met
--
sequenceText: ATCACACC
testSystem: SIX1-Q177R homeodomain (human, UniProt Q15475 108-198, Q177R)
discreteLabel: rule met
--
sequenceText: ACACGAGT
testSystem: SIX1-Q177R homeodomain (human, UniProt Q15475 108-198, Q177R)
discreteLabel: rule met
--
sequenceText: TAGCTACA
testSystem: SIX1-Q177R homeodomain (human, UniProt Q15475 108-198, Q177R)
discreteLabel: rule met
--
sequenceText: TCTTGACA
testSystem: SIX1-Q177R homeodomain (human, UniProt Q15475 108-198, Q177R)
discreteLabel: rule not met
--
sequenceText: CACGCATC
testSystem: SIX1-Q177R homeodomain (human, UniProt Q15475 108-198, Q177R)
discreteLabel: rule not met
--
sequenceText: CGGATCCC
testSystem: SIX1-Q177R homeodomain (human, UniProt Q15475 108-198, Q177R)
discreteLabel: rule met
--
sequenceText: GTAGGGTA
testSystem: SIX1-Q177R homeodomain (human, UniProt Q15475 108-198, Q177R)
discreteLabel: rule not met
--
sequenceText: CGACCCCG
testSystem: SIX1-Q177R homeodomain (human, UniProt Q15475 108-198, Q177R)
discreteLabel: rule met
--
sequenceText: ACTGCCCG
testSystem: SIX1-Q177R homeodomain (human, UniProt Q15475 108-198, Q177R)
discreteLabel: rule met
--
sequenceText: AGGGGACA
testSystem: SIX1-Q177R homeodomain (human, UniProt Q15475 108-198, Q177R)
discreteLabel: rule not met
--
sequenceText: ATCACACG
testSystem: SIX1-Q177R homeodomain (human, UniProt Q15475 108-198, Q177R)
discreteLabel: rule met
--
sequenceText: ACACGAGG
testSystem: SIX1-Q177R homeodomain (human, UniProt Q15475 108-198, Q177R)
discreteLabel: rule met
--
sequenceText: CAGCACCG
testSystem: SIX1-Q177R homeodomain (human, UniProt Q15475 108-198, Q177R)
discreteLabel: rule met
--
sequenceText: CACGTGCG
testSystem: SIX1-Q177R homeodomain (human, UniProt Q15475 108-198, Q177R)
discreteLabel: rule not met
--
sequenceText: ACACGAGC
testSystem: SIX1-Q177R homeodomain (human, UniProt Q15475 108-198, Q177R)
discreteLabel: rule met
--
sequenceText: CGCACTAC
testSystem: SIX1-Q177R homeodomain (human, UniProt Q15475 108-198, Q177R)
discreteLabel: rule not met
--
sequenceText: GTAGTGTA
testSystem: SIX1-Q177R homeodomain (human, UniProt Q15475 108-198, Q177R)
discreteLabel: rule met

---

- testSystem: SIX1-Q177R homeodomain (human, UniProt Q15475 108-198, Q177R)
- Sequence: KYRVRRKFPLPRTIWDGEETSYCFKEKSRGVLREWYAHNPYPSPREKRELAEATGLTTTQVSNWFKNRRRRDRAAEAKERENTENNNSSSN
- measurementDescription: universal protein binding microarray; Universal all-10-mer PBM (8x60K, AMADID 030236), 300 nM GST-tagged protein, Alexa Fluor 488 anti-GST; buffer, salt, pH and temperature not stated (as in Berger); high values mean tight binding
- measurementSetup: protein: ivt; tags: N-terminal GST; dsDNA, one strand shown
In all, about 33,000 sequences were measured (“e-score”: median about -0.05, highest 2% from about 0.38 on). Only a selection was taken, and the highest values are over-represented in it overall.

sequenceText: CGAGTATC
binding signal, E-score: 0.158

sequenceText: TAAGGGTA
binding signal, E-score: 0.163

sequenceText: GCAGTGTA
binding signal, E-score: 0.415

sequenceText: CGTATGAC
binding signal, E-score: 0.199

sequenceText: CCGGGGTA
binding signal, E-score: 0.284

sequenceText: TACTGACA
binding signal, E-score: 0.22

sequenceText: CTAGCACC
binding signal, E-score: 0.203

sequenceText: CACTCGGG
binding signal, E-score: 0.225

sequenceText: ACCGCACC
binding signal, E-score: 0.247

sequenceText: AAAGTGTC
binding signal, E-score: 0.36

sequenceText: ACCAGGTG
binding signal, E-score: 0.217

sequenceText: ATAGCGTG
binding signal, E-score: 0.159

sequenceText: CGGTGCGA
binding signal, E-score: 0.155

sequenceText: ACACGATC
binding signal, E-score: 0.385

sequenceText: ACCCGATC
binding signal, E-score: 0.253

sequenceText: CCTGTGTC
binding signal, E-score: 0.229

sequenceText: AACGACAC
binding signal, E-score: 0.447

sequenceText: TCGGCACA
binding signal, E-score: 0.217

sequenceText: CACGACAC
binding signal, E-score: 0.448

sequenceText: CCAGTAAC
binding signal, E-score: 0.161

sequenceText: GCTGAACA
binding signal, E-score: 0.169

sequenceText: GTCACGAC
binding signal, E-score: 0.164

sequenceText: AGGACCCC
binding signal, E-score: 0.205

sequenceText: CGAGTGTC
binding signal, E-score: 0.415

sequenceText: ACACGATA
binding signal, E-score: 0.375

sequenceText: GTATGATA
binding signal, E-score: 0.18

sequenceText: CACGATGC
binding signal, E-score: 0.182

sequenceText: CACCGTAC
binding signal, E-score: 0.365

sequenceText: CACCTGTC
binding signal, E-score: 0.224

sequenceText: GACGACCC
binding signal, E-score: 0.158

sequenceText: CCCGGGGA
binding signal, E-score: 0.206

sequenceText: GCAACACC
binding signal, E-score: 0.467

sequenceText: GGTGCGTA
binding signal, E-score: 0.161

sequenceText: ACCCCCCC
binding signal, E-score: 0.31

sequenceText: CACGACCC
binding signal, E-score: 0.32

sequenceText: ACAACACG
binding signal, E-score: 0.358

sequenceText: ACACGAAG
binding signal, E-score: 0.346

sequenceText: CCAACACC
binding signal, E-score: 0.47

sequenceText: CCAGTGTC
binding signal, E-score: 0.431

sequenceText: CACGACTC
binding signal, E-score: 0.304

sequenceText: CACCGTGG
binding signal, E-score: 0.333

sequenceText: GCAGGGTA
binding signal, E-score: 0.162

sequenceText: GGAGGGGA
binding signal, E-score: 0.158

sequenceText: GATCCCCC
binding signal, E-score: 0.368

sequenceText: ACCATACA
binding signal, E-score: 0.32

sequenceText: CGAGTACC
binding signal, E-score: 0.168

---

- testSystem: SIX1-Q177R homeodomain (human, UniProt Q15475 108-198, Q177R)
- Sequence: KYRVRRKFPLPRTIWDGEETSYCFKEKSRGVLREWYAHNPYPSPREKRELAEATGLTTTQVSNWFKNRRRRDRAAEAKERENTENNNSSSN
- measurementDescription: universal protein binding microarray; Universal all-10-mer PBM (8x60K, AMADID 030236), 300 nM GST-tagged protein, Alexa Fluor 488 anti-GST; buffer, salt, pH and temperature not stated (as in Berger); high values mean tight binding
- measurementSetup: protein: ivt; tags: N-terminal GST; dsDNA, one strand shown
The full ranking holds about 33,000 sequences; the median of “e-score” is about -0.05, and the highest 2% start at about 0.38. Many of the other results were omitted from the sample, so the highest values are more common in it than they were.
In this scheme, each record receives a class according to its binding signal; the ranges are b0: < 0.2 E-score; b1: ≥ 0.2 E-score and < 0.3 E-score; b2: ≥ 0.3 E-score

sequenceText: CTCAACAC
discreteLabel: b2

sequenceText: AATGACTC
discreteLabel: b1

sequenceText: CCCGACAC
discreteLabel: b2

sequenceText: ATCAACAC
discreteLabel: b2

sequenceText: ACACAGTG
discreteLabel: b1

sequenceText: ACTCAACA
discreteLabel: b0

sequenceText: CAGGGTGG
discreteLabel: b0

sequenceText: AGCAACAC
discreteLabel: b2

sequenceText: ACCCGCTC
discreteLabel: b1

sequenceText: CCGCCACA
discreteLabel: b1

sequenceText: ACCCGGAC
discreteLabel: b0

sequenceText: CATGACAC
discreteLabel: b2

sequenceText: GCCGATCC
discreteLabel: b0

sequenceText: AATGACAC
discreteLabel: b2

sequenceText: AACAAGGG
discreteLabel: b0

sequenceText: AGGCGGTG
discreteLabel: b1

sequenceText: GATGATAC
discreteLabel: b1

sequenceText: CCCGACGC
discreteLabel: b0
